Each recorded value in this set is attributed to PubChem BioAssay AID504465.

Method: IN Cell qHTS Assay for Inhibitors of the mTORC1 Signaling Pathway in MEF (Tsc2-/-, p53-/-) Cells: Sytravon; also: nearly all actives have a fitted effect of over 60% in size
Run conditions: phospho-rpS6 immunofluorescence, 24 h; series mostly up to 38.3 µM
Hit rate of the full screen: of about 2,100 compounds, about 210 (10%) were called active. Roughly 53% stayed inconclusive and do not appear here. Calls follow the shape of the dose curve; as a rule, active = well fitted inhibition curve with a large enough effect; inconclusive = small, poorly fitted or top-dose-only effect, or effect the other way; inactive = no such curve, though single readings can be large or run the other way. The list shows a part of the results.
Respond using exactly one of the listed classes: yes (1) = active, no (0) = inactive

[ask] Check the results log: what was the call for Cc1ccc(CSc2oc(-c3ccco3)nc2S(=O)(=O)c2ccc(Cl)cc2)cc1 ?
[reply] no (0)

[ask] Check the results log: what was the call for CCCCS(=O)(=O)c1oc(-c2ccc(F)cc2)nc1S(=O)(=O)c1ccccc1 ?
[reply] yes (1)

[ask] Check the results log: what was the call for Cc1ccc(S(=O)(=O)c2nc(S(=O)(=O)c3ccccc3)sc2NCCCOC(C)C)cc1 ?
[reply] no (0)

[ask] Check the results log: what was the call for CCCCS(=O)(=O)c1oc(-c2ccc(F)cc2)nc1S(=O)(=O)c1ccc(C)cc1 ?
[reply] yes (1)

[ask] Check the results log: what was the call for CCN(CC)CCCNc1ncnc2c1cnn2-c1ccc(C)c(C)c1 ?
[reply] no (0)

[ask] Check the results log: what was the call for COc1cccc(NS(=O)(=O)c2ccc3c(c2)CCCN3C(=O)C2CCC2)c1 ?
[reply] no (0)

[ask] Check the results log: what was the call for CCOc1ccccc1CNC(=O)CCn1c(=O)c2cccn2c2ccc(F)cc21 ?
[reply] no (0)

[ask] Check the results log: what was the call for O=C(NCC1CCN(Cc2ccccc2Cl)CC1)c1cc2ccc3cccnc3c2[nH]1 ?
[reply] no (0)

[ask] Check the results log: what was the call for Cc1ccccc1Nc1c(-c2ccc(Cl)s2)nc2cccc(C)n12 ?
[reply] no (0)

[ask] Check the results log: what was the call for CCOC(=O)c1cc(-c2ccc(C)cc2)n(CC(=O)Nc2ccccc2F)c1C ?
[reply] yes (1)

[ask] Check the results log: what was the call for c1ccc(N2CCN(c3ncnc4c3nc3n4CCCCC3)CC2)cc1 ?
[reply] no (0)

[ask] Check the results log: what was the call for CCSc1nc2ccccc2c(OCc2cc(C(=O)OC)ccc2OC)c1C(=O)OC ?
[reply] no (0)

[ask] Check the results log: what was the call for CC(C)C(=O)OC1=CN(Cc2ccccc2)S(=O)(=O)c2ccccc21 ?
[reply] no (0)

[ask] Check the results log: what was the call for Cc1ccc(C(=O)c2cn(CC(=O)NCc3ccccc3Cl)c3nc(C)ccc3c2=O)cc1 ?
[reply] no (0)

[ask] Check the results log: what was the call for CCC(=O)N1CCc2cc(Br)cc(S(=O)(=O)N3CCCC(C(=O)Nc4ccc(CC)cc4)C3)c21 (stereo unspecified) ?
[reply] no (0)

[ask] Check the results log: what was the call for CCOc1ccc(S(=O)(=O)Nc2cc(Cl)ccc2OC)c2cccnc12 ?
[reply] no (0)

[ask] Check the results log: what was the call for Cc1cccc(C)c1NC(=O)c1cc(S(=O)(=O)N2CCCc3ccccc32)ccc1F ?
[reply] no (0)

[ask] Check the results log: what was the call for C=CCc1ccc(OCc2ccc(C(=O)Nc3ccc(NC(C)=O)cc3)o2)c(OC)c1 ?
[reply] no (0)

[ask] Check the results log: what was the call for Oc1ccccc1-c1nc(-c2cccs2)c(-c2cccs2)[nH]1 ?
[reply] no (0)

[ask] Check the results log: what was the call for COc1cccc(-c2nc3c(c(SCC(=O)Nc4cccc(C)c4C)n2)Cc2c(CO)cnc(C)c2O3)c1 ?
[reply] no (0)

[ask] Check the results log: what was the call for Cc1ccc(C)c(NC(=O)Cn2cc(C(=O)c3cccs3)c3ccccc32)c1 ?
[reply] no (0)
